Assay: ATG_Oct_MLP_CIS: Attagene CIS-FACTORIAL HepG2 Assay for human Octamer-Binding Transcription Factor (Oct) (AID 2282993)
Settings: HepG2 Attagene cis-factorial Oct reporter, mRNA; actives raise or lower the signal
Activity calls are given as the source filed them. Rule for the calls: active = hit-call score of the fitted dose curve at least 0.9, where 1 is the maximum; inactive = score below 0.9.
Classes used: active, inactive

{"molecule": "[N-]=[N+]=[N-]", "answer label": "inactive"}
{"molecule": "C=C(C)C(=O)OCC1CO1 (stereo not drawn)", "answer label": "inactive"}
{"molecule": "c1ccc2c(c1)Nc1ccccc1S2", "answer label": "inactive"}
{"molecule": "Cc1cccc(N)c1", "answer label": "inactive"}
{"molecule": "C=CC(=O)OCC(F)(F)C(F)F", "answer label": "inactive"}
{"molecule": "CC(=O)c1ccc(-c2ccccc2)cc1", "answer label": "inactive"}
{"molecule": "O=P(Oc1ccccc1)(Oc1ccccc1)Oc1ccccc1", "answer label": "active"}
{"molecule": "CCN(CC)C1CCCCC1", "answer label": "inactive"}
{"molecule": "O=C(O)C(F)(F)OC(F)(F)C(F)(F)OC(F)(F)C(=O)O", "answer label": "inactive"}
{"molecule": "CCOP(=S)(OCC)SCn1nnc2ccccc2c1=O", "answer label": "inactive"}
{"molecule": "COC(=O)C(F)(F)C(F)(F)OC(F)(C(F)(F)F)C(F)(F)OC(F)=C(F)F (stereo not drawn)", "answer label": "inactive"}
{"molecule": "OCC(F)(F)OC(F)(F)C(F)(F)OC(F)(F)C(F)(F)OC(F)(F)CO", "answer label": "inactive"}
{"molecule": "O=S1(=O)OCC2C(CO1)C1(Cl)C(Cl)=C(Cl)C2(Cl)C1(Cl)Cl (stereo not drawn)", "answer label": "active"}

Measured values drawn from PubChem BioAssay (EPA / NIEHS) for this set.
